B1: Neutrophil cytosol factor 2, residues 456 to 514; numbered along this chain, P19878 (parent)
chain: LKKGSQVEALFSYEATQPEDLEFQEGDIILVLSKVNEEWLEGECKGKVGIFPKVFVEDC

Variants of: B1
Experiment: abundance fitness (aPCA) (normalised: wild type 0, dead -1); higher = more abundant; growth selection in yeast, the domain comes from the species named
Settings: Homo sapiens
Record form. Attribute: abundance fitness. Fill in for each entry.
Could you keep your reply to the number by itself?

stdin: Please report the recorded abundance fitness for G49C .
stdout: -0.756

stdin: Input K2N
stdout: 0.141

stdin: Quick one: E19V
stdout: -0.443

stdin: Moving on to the next variant: L21Y
stdout: -0.721

stdin: Consider next the variant A9M in the same way.
stdout: -0.532

stdin: Would you kindly repeat that for E38K ?
stdout: -0.649

stdin: Now this one: L30Y
stdout: 0.079

stdin: Another: E25C
stdout: -0.275

stdin: G42F ?
stdout: -0.509

stdin: Please give the result for W39S too.
stdout: -0.666

stdin: Similarly, E43H ?
stdout: -0.314

stdin: And what about the variant L10P ?
stdout: -0.539

stdin: Cool, now E8P
stdout: -0.363

stdin: Record: P52C
stdout: -0.51

stdin: Also F55W , if possible.
stdout: -0.529

stdin: Follow-up item: V48T
stdout: -0.031

stdin: // query: L32E
stdout: -0.299

stdin: What about this variant? Q6W
stdout: 0.367

stdin: Next up: G4L
stdout: -0.83

Every entry's value here was drawn from the Human Domainome abundance scans (Beltran et al. 2025).
